ASSAYED SYSTEM: T1, extracellular domain of human ILT3 (huILT3-ECD) (human, UniProt Q8NHJ6 22-259)
T1 construct: also called human ILT3-ECD
METHOD NOTES: SPR (Biacore), antibody captured via anti-Fc on CM5 chip, soluble ILT3-ECD injected, 37 C
READOUT TYPE: Kd (nM)
Please respond with the number in nM and leave the unit unwritten.

Given the binder anti-ILT3 antibody 16C5 (antibody, V domains shown, Mouse monoclonal antibody from hybridoma) VH: EVQLQQSGPELVKPGASVKISCKASGYTFTDYNMDWVKQSHGKSLEWIGYIYPSNGGTGYNQKFKSKATLTVDKSSNTAYMELHSLTSEDSAVYYCARVPYYDYLYYYAMDYWGQGTSVTVSS VL: QIVLSQSPAILSASPGEKVTMACRASSSVSFMHWYQQKPGSSPQPWIYATSNLASGVPARFSGSGSGTSYSLTISRVEAEDAATYYCQQWSTNPYMYTFGGGTKLEIK , what is its reported Kd? 1.8

Need Kd, item anti-ILT3 antibody 5A7 (antibody, V domains shown, Mouse monoclonal antibody from hybridoma) VH: EVKLVESGGGLVKPGGSLKLSCAASGFTFSSYGMSWVRQTPEKRLEWVATISGGGSYTNYPDSVKGRLTISRDNAKKNLYLEMSSLRSEDTALYYCARREWRMTLYAMDYWGQGTSVTVSS VL: NIVLTQSPASLAVSLGQRATISCRASESVDSYGNSFMHWYQQKPGQAPKLLIYLTSNLESGVPARFSGSGSRTDFTLTIDPVEADDAATYYCQQNNEDPFTFGSGTKLEIK 0.028

State the recorded Kd for this entry: anti-ILT3 antibody 3A3 (antibody, V domains shown, Mouse monoclonal antibody from hybridoma) VH: QVQLKESGPGLVAPSQSLSITCTVSGFSLTSYGVHWVRQPPGKGLEWLGVIWPGGTINYNSALMSRLSISKDNSKSQVFLKLNSLQTDDTAMYYCASDKYDGGWFAYWGQGTLVTVSA VL: DIVMTQSQKFMSTSVGDRVSITCKASQNVRTAVAWYQQKPGQSPEALIYLASNRHTGVPDRFTGSGSGTDFSLSISNVQSEDLADYFCLQHLNYPLTFGSGTKLEIK 2

Endpoint output: Kd of anti-ILT3 antibody 53F10 (antibody, V domains shown, Mouse monoclonal antibody from hybridoma) VH: EVQVVESGGGLVKPGGSLKLSCAASGFTFSDYGMHWVRQAPEKGLEWVAYISTGIITVYYADTVKGRFTMSRDNAKNTLFLQMTSLRSEDTAIYYCARADGRGAMDYWGQGTSVIVSS VL: DIQMTQTTSSLSASLGDRVTISCRASQDISNFLNWYQQKPDGTVTLLIYYTSRLHSGVPSRFSGSGSGTDYSLTISNLEQEDFATYFCQQGNTLPWTFGGGTKLEIK . Value? 0.24

May I ask what Kd has been recorded for anti-ILT3 antibody 12A12 (antibody, V domains shown, Mouse monoclonal antibody from hybridoma) VH: EVQLQQSGPELVKPGASVKISCKASGYTFTDYNMDWVKQSHGKSLEWIGYIYPNNGGTGYNQKFNSKATLTVDKSSSTAYMELHSLTSEDSAVYYCASSPYYDYVGSYAMDYWGQGTSVTVSS VL: QIVLTQSPAIMSASLGERVTMTCTASSSVSSSYLHWYQQKPGSSPKLWIYSTSNLASGVPARFSGSGSGTSYSLTISSMEAEDAATYYCHQYHRSPRTFGGGTKLEIK ? 8.5

Reported Kd, binder anti-ILT3 antibody 45G10 (antibody, V domains shown, Mouse monoclonal antibody from hybridoma) VH: EVQLVESGGGLVKPGGSLKLSCAASGFTFSDYGMHWVRQAPEKGLEWVAYIFSGSSTIYYADTVKGRFTISRDNAKNTLFLQMTSLRSEDTAMYYCARADGRGAMDYWGQGTSVTVSS VL: DVQMTQTTSSLSASLGDRVTISCRASQDISKFLNWYQQKPDGTVTLLIYYTSRLHSGVPSRFSGSGSGTDYSLTISNLDQEDIATYFCQQGNTLPWTFGGGTKLEIK : ____ 0.13
